# test summary: Cav-1 peptide solubility in Tris Buffered Saline, pH 7.51 (absorbance at 600 nm)
# Type: physicochemical
# assay setup: absorbance at 600 nm; 50 mg in 5 mL TBS pH 7.51; again after 10 minutes (APi2348 15 min, APi2352 5 min, APi2353 15 min, APi2345 only after 20 min)
Recorded UV (Abs) after rest values for a group of substances are listed next.

1) Ac-KASFTTFTVTK-NH2 [APi2347, Ac-KASFTTFTVTK-NH2]
2.284
2) H-KASFTTFTVTK-NH2 [APi2346, KASFTTFTVTK-NH2]
1.622
3) Ac-KASFTTFTVTKGS-NH2 [APi2351, Ac-KASFTTFTVTKGS-NH2]
2.377

For H-FTTFTVT-NH2 [APi2344, FTTFTVT-NH2] , what is its reported UV (Abs) after rest?
1.437

Look up UV (Abs) after rest for this substance: H-DSGKASFTTFTVTK-NH2 [APi2352, DSGKASFTTFTVTK-NH2]
2.398

Param item = H-FTTFTVTK-NH2 [APi2345, FTTFTVTK-NH2] ; retrieve measured UV (Abs) after rest.
1.058

Quick one: UV (Abs) after rest of Ac-DSGKASFTTFTVTK-NH2 [APi2353, Ac-DSGKASFTTFTVTK-NH2] ?
3.000

Recorded UV (Abs) after rest of Ac-OASFTTFTVTK-NH2 [APi2349] , please.
1.827

====

Listing of entries alongside the reported UV (Abs) at dissolution.
# test summary: Cav-1 peptide solubility in Tris Buffered Saline, pH 7.51 (absorbance at 600 nm)
# Assay type: physicochemical
# assay setup: absorbance at 600 nm; 50 mg in 5 mL TBS pH 7.51; immediately after dissolution for insoluble peptides, after 10 minutes for soluble peptides
Non-standard residues stand in square brackets, D forms with d. No end group written: not given here. Orn = NCCC[C@H](N)C(=O)O
Form field (numeric): enter value without unit.

Example results:
1) H-FTTFTVT-NH2 [APi2344, FTTFTVT-NH2]
2.409
2) H-DSGKASFTTFTVTK-NH2 [APi2352, DSGKASFTTFTVTK-NH2]
2.468
3) Ac-OASFTTFTVTK-NH2 [APi2349]
1.870
4) Ac-KASFTTFTVTKGS-NH2 [APi2351, Ac-KASFTTFTVTKGS-NH2]
2.523
5) OASFTTFTVTOS-NH2 ([Orn]ASFTTFTVT[Orn]S-NH2; N-terminus assumed; SMILES CC(C)[C@H](NC(=O)[C@@H](NC(=O)[C@H](Cc1ccccc1)NC(=O)[C@@H](NC(=O)[C@@H](NC(=O)[C@H](Cc1ccccc1)NC(=O)[C@H](CO)NC(=O)[C@H](C)NC(=O)[C@@H](N)CCCN)[C@@H](C)O)[C@@H](C)O)[C@@H](C)O)C(=O)N[C@H](C(=O)N[C@@H](CCCN)C(=O)N[C@@H](CO)C(N)=O)[C@@H](C)O) [APi2356, O = Ornithine]
0.001

Bench note: what UV (Abs) at dissolution did Ac-KASFTTFTVTK-NH2 [APi2347, Ac-KASFTTFTVTK-NH2] show?
2.347

====

# test summary: Cav-1 peptide solubility in Tris Buffered Saline, pH 7.51 (absorbance at 600 nm)
# Type: physicochemical
# assay setup: absorbance at 600 nm; 50 mg in 5 mL TBS pH 7.51; immediately after dissolution for insoluble peptides, after 10 minutes for soluble peptides
Let's look at some substances and their measured UV (Abs) at dissolution.
Output: the number by itself.

For orientation, consider the following solved cases.
1) Ac-OASFTTFTVTOS-NH2 [APi2357]
2.293
2) H-KASFTTFTVTK-NH2 [APi2346, KASFTTFTVTK-NH2]
1.648

Now for the substance whose UV (Abs) at dissolution we want.
Fill in: UV (Abs) at dissolution of Ac-DSGKASFTTFTVTK-NH2 [APi2353, Ac-DSGKASFTTFTVTK-NH2] is ___
3.000
